The reported numbers originate from patent US4738954A.

Target: adenosine A2 receptor (Rattus norvegicus, UniProt P30543)
Construct: Brains were thawed and then kept on ice while the striata were dissected out; tissue Pel-Freez (Rogers, Arkansas) (rat brains); host or cells: rat striatum, membranes
Sequence (P30543 whole entry): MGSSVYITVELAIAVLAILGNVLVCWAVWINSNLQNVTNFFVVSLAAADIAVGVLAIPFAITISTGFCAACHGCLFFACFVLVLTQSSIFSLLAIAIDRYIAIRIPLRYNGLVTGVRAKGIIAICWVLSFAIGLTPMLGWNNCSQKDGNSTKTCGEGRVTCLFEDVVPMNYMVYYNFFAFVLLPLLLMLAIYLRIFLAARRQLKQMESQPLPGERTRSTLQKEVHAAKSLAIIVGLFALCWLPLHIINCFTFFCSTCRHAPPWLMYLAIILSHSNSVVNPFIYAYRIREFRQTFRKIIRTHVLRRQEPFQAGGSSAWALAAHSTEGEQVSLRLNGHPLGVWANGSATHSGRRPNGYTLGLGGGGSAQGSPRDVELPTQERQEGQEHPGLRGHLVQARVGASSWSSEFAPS
Assay: Adenosine Receptor Binding--A2 Receptor Affinity (RBA2), [3H]NECA displacement
Assay type: rat (Sprague-Dawley striatal membranes)
Settings: 4 nM [3H]NECA + 50 nM N6-cyclopentyladenosine, rat striatum, 25° C, 60 min; read-out: RBA-2 (IC50, A2 receptor affinity)
PARAMETER MEASURED: pIC50
Scale explanation: pIC50 corresponds to minus log10 of a concentration expressed in moles per litre.

What does the data say about its pIC50? Entry: "CCNC(=O)[C@H]1O[C@@H](n2cnc3c(N[C@H](C)Cc4ccccc4)ncnc32)[C@H](O)[C@@H]1O"
7.15

---

Tested on: platelets (collagen-induced aggregation)
Experiment: Antithrombocyte aggregation test in vitro (ATA-8), collagen-induced, whole blood
Type: cell-based, human (Community Research Clinic volunteers)
Conditions: Homo sapiens, Platelet
PARAMETER MEASURED: IC50 (nM)
Return type: number; implicit unit nM.

What does the data say about its IC50? Entry: CCNC(=O)[C@H]1O[C@@H](n2cnc3c(N[C@H](C)Cc4ccccc4)ncnc32)[C@H](O)[C@@H]1O [Example 1]
50

---

Target: adenosine A1 receptor (Rattus norvegicus, UniProt P25099)
Construct: Whole brain minus cerebellum and brainstem from male Long Evans rats; from tissue; host or cells: rat whole brain minus cerebellum and brainstem, membranes
Sequence (P25099 whole entry): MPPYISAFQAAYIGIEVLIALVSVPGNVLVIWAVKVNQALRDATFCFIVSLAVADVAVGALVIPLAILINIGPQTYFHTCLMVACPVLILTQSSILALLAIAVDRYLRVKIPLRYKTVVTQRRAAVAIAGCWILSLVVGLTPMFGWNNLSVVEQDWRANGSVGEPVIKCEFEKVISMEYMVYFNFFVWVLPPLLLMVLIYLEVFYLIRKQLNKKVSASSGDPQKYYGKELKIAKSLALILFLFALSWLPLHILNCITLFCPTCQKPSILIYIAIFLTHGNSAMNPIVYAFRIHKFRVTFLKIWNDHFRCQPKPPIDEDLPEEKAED
Test: Adenosine Receptor Binding--A1 Receptor Affinity (RBA1), [3H]-CHA displacement
Conditions: 1.0 nM [3H]-CHA, rat brain, 25° C, 1 h; read-out: RBA-1 (IC50, A1 receptor affinity)
pIC50: −log10 of the molar value.
Assign class by pIC50: not lower than 8 means Criterion met; lower than 8 means Criterion not met.

Some solved entries appear below for comparison.
- MOLECULE: "CCNC(=O)[C@H]1O[C@@H](n2cnc3c(N[C@@H]4CCc5ccccc54)ncnc32)[C@H](O)[C@@H]1O [Example 2]"
  CLASS LABEL: "Criterion not met"
- MOLECULE: "CCNC(=O)[C@H]1O[C@@H](n2cnc3c(N[C@H](C)Cc4ccccc4)ncnc32)[C@H](O)[C@@H]1O [Example 1]"
  CLASS LABEL: "Criterion met"
- MOLECULE: "CCNC(=O)[C@H]1O[C@@H](n2cnc3c(NC4CCCC4)ncnc32)[C@H](O)[C@@H]1O [Example 4]"
  CLASS LABEL: "Criterion met"

Evaluate CCOC(=O)[C@H]1O[C@@H](n2cnc3c(NC4CC5CCC4C5)ncnc32)[C@H](O)[C@@H]1O (relative stereo) [Example 8] : pIC50 at minimum 8?
Criterion met

Evaluate CCOC(=O)[C@H]1O[C@@H](n2cnc3c(NCC(c4ccccc4)c4ccccc4)ncnc32)[C@H](O)[C@@H]1O [Example 5] : pIC50 at minimum 8?
Criterion not met
